# protocolDetails: Stability test (appearance by naked eye, purity by liquid chromatography after storage)
# Format: physicochemical
# conditionDetails: Condition 4: 40° C. and relative humidity 75% for 28 days

{"compound": "C[C@H](Cc1cc2c(c(C(N)=O)c1)N(CCCO)CC2)NCCOc1ccccc1OCC(F)(F)F [β, KMD-3213]", "Appearance": "Pale yellow powder"}
{"compound": "C[C@H](Cc1cc2c(c(C(N)=O)c1)N(CCCO)CC2)NCCOc1ccccc1OCC(F)(F)F [α, KMD-3213]", "Appearance": "White powder"}
{"compound": "C[C@H](Cc1cc2c(c(C(N)=O)c1)N(CCCO)CC2)NCCOc1ccccc1OCC(F)(F)F [γ, KMD-3213]", "Appearance": "Pale yellow powder"}
{"compound": "C[C@H](Cc1cc2c(c(C(N)=O)c1)N(CCCO)CC2)NCCOc1ccccc1OCC(F)(F)F [amorphous, KMD-3213]", "Appearance": "White powder"}
